# assay details: acute toxicity, mouse
# run parameters: in vivo, po, hydrogen malonate form, read-out: LD50 p.o.
measured property: LD50 (mg/kg)
The figure you give is taken to be in mg/kg; do not add the unit.

Task: May I ask what LD50 has been recorded for Cc1cc2c(OCC(CNC(C)(C)C)OC(=O)c3ccccc3)cccc2[nH]1 (stereo not shown) ?
Output: 242

* * *

# assay details: acute toxicity, mouse
# run parameters: in vivo, iv, hydrogen malonate form, read-out: LD50 i.v.
measured property: LD50 (mg/kg)
The figure you give is taken to be in mg/kg; do not add the unit.

Task: May I ask what LD50 has been recorded for Cc1cc2c(OCC(CNC(C)(C)C)OC(=O)c3ccccc3)cccc2[nH]1 (stereo not shown) ?
Output: 11

* * *

# assay details: acute toxicity, rabbit
# run parameters: in vivo, po, hydrogen malonate form, read-out: LD50 p.o.
measured property: LD50 (mg/kg)
The figure you give is taken to be in mg/kg; do not add the unit.

Task: May I ask what LD50 has been recorded for Cc1cc2c(OCC(CNC(C)(C)C)OC(=O)c3ccccc3)cccc2[nH]1 (stereo not shown) [compound of formula I] ?
Output: 334

* * *

# assay details: acute toxicity, rat
# run parameters: in vivo, po, hydrogen malonate form, read-out: LD50 p.o.
measured property: LD50

Task: May I ask what LD50 has been recorded for Cc1cc2c(OCC(CNC(C)(C)C)OC(=O)c3ccccc3)cccc2[nH]1 (stereo not shown) [compound of formula I] ?
Output: 1010 mg/kg
